Measured values drawn from patent US20060258581A1 for this set.

# TEST_SYSTEM: XIAP-inhibited caspase-3 (Homo sapiens, UniProt P98170)
# Construct: in a caspase derepression assay using full length XIAP; made in house; host or cells: bacteria
# Sequence (P98170 whole entry): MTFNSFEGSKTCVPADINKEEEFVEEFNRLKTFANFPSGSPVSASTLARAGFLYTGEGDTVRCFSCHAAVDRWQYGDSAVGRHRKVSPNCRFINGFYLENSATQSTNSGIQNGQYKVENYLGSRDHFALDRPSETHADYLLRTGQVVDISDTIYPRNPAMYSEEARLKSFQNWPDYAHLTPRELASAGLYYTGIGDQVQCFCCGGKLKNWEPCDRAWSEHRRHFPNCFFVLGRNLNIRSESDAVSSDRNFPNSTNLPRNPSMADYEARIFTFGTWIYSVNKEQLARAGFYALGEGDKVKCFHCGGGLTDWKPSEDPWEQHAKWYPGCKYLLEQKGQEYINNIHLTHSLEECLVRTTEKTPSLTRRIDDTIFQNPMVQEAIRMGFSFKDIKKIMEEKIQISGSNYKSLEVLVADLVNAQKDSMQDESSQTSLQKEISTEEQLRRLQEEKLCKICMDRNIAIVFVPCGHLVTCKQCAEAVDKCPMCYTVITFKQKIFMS
# TEST_METHOD_NOTES: IAP derepression assay: Ac-DEVD-AFC hydrolysis by caspase-3 in the presence of GST-XIAP
# Assay type: biochemical
# TEST_PARAMETERS: in words
Where a SMILES comes first, the peptide text is derived from it. [ ]: non-standard residue; d: D form. The star is where a group is joined. Phe(4-Cl) = N[C@@H](Cc1ccc(Cl)cc1)C(=O)O; 2Nal = N[C@@H](Cc1ccc2ccccc2c1)C(=O)O; Fmoc = O=C(OCC1c2ccccc2-c2ccccc21)*; 2Thi = N[C@@H](Cc1cccs1)C(=O)O
REPORTED_PROPERTY: activity in the caspase derepression assay using full length XIAP

COMPOUND: N[C@@H](Cc1cccs1)C(=O)N[C@@H](Cc1ccc2ccccc2c1)C(=O)N[C@H](CCCCNC(=O)OCC1c2ccccc2-c2ccccc21)C(=O)N[C@@H](CCCCNC(=O)OCC1c2ccccc2-c2ccccc21)C(=O)O [TPI 792-35] (H-[2Thi][2Nal][dK](Fmoc)K(Fmoc)-OH)
VALUE: activity

COMPOUND: N[C@@H](Cc1cccs1)C(=O)N[C@@H](Cc1ccc2ccccc2c1)C(=O)N[C@@H](Cc1ccc(Cl)cc1)C(=O)N[C@@H](CCCCNC(=O)OCC1c2ccccc2-c2ccccc21)C(=O)O [TPI 792-33] (H-[2Thi][2Nal][Phe(4-Cl)]K(Fmoc)-OH)
VALUE: activity

* * *

Measured % nonviable cells accompanies every entry in the list below.
# System: Jurkat leukemia cells
# TEST_METHOD_NOTES: Jurkat leukemia cell death, Annexin V/propidium iodide flow cytometry
# Type: cell-based
# TEST_PARAMETERS: 1 µM
Give just the number in %; leave the unit off.

Prompt: Reported % nonviable cells, molecule CCCC[C@@H](CNCc1ccccc1)N1C[C@@H](CC(C)C)N(CC(C)c2ccc(CC(C)C)cc2)C(=O)C1=O (stereo partly shown) [TPI 1391-1] : ____
Response: 18

Prompt: Reported % nonviable cells, molecule CCCC[C@H](CNCc1ccccc1)N1C[C@@H](CC(C)C)N(CC2CCC(C(C)(C)C)CC2)C(=O)C1=O (stereo partly shown) [TPI 1391-17] : ____
Response: 13

Prompt: Reported % nonviable cells, molecule CCCCCCCN1C(=O)C(=O)N([C@H](CCCC)CNCc2ccccc2)C[C@@H]1Cc1ccc2ccccc2c1 [TPI 1391-21] : ____
Response: 16

Prompt: Reported % nonviable cells, molecule CC(C)C[C@@H]1CN([C@H](CNCc2ccccc2)Cc2ccc3ccccc3c2)C(=O)C(=O)N1CCc1cccc(C(F)(F)F)c1 [TPI 1391-28] : ____
Response: 19

Prompt: Reported % nonviable cells, molecule CCCC[C@@H](CNCc1ccccc1)N1C[C@@H](CC(C)C)N(CC2CCC(C(C)(C)C)CC2)C(=O)C1=O (stereo partly shown) [TPI 1391-5] : ____
Response: 17

Prompt: Reported % nonviable cells, molecule CC(C)Cc1ccc(C(C)CN2C(=O)C(=O)N([C@H](CNCc3ccccc3)Cc3ccc4ccccc4c3)C[C@H]2CC(C)C)cc1 (stereo partly shown) [TPI 1391-25] : ____
Response: 16

Prompt: Reported % nonviable cells, molecule CCCC[C@@H](CNCc1ccccc1)N1C[C@@H](CC(C)C)N(CCc2cccc(C(F)(F)F)c2)C(=O)C1=O [TPI 1391-4] : ____
Response: 20

* * *

# TEST_METHOD_NOTES: Jurkat leukemia cell death, Annexin V/propidium iodide flow cytometry
# Assay type: cell-based
# TEST_PARAMETERS: human, 5 μM, 20 hours; read-out: % nonviable cells
REPORTED_PROPERTY: cytotoxicity at 20 hours, 5 µM

Prompt: Reported cytotoxicity at 20 hours, 5 µM, substance H-AVPIAQK-NH2 [SMAC, H-Ala-Val-Pro-Ile-Ala-Gln-Lys-NH2, reference compound] : ____
Response: 12%

* * *

# System: PC-3 and LNCaP prostate cancer cell lines
# TEST_METHOD_NOTES: Clonogenic survival (colony formation) assay
# Format: cell-based
# TEST_PARAMETERS: Homo sapiens, 3 days culture, colonies counted one week later, read-out: average EC50 dose, clonogenic survival
REPORTED_PROPERTY: EC50 (µM)
Give just the number in µM; leave the unit off.

Prompt: Reported EC50, molecule COc1ccc(CCN2CCC[C@@H]2CN(C(=O)Nc2ccccc2)[C@@H](CNC(=O)Nc2ccccc2)CC2CCCCC2)cc1 [TPI 1396-34] : ____
Response: 3

* * *

# System: Jurkat leukemia cells
# TEST_METHOD_NOTES: Jurkat leukemia cell death, Annexin V/propidium iodide flow cytometry
# Type: cell-based
# TEST_PARAMETERS: 50 µM
Measured % nonviable cells accompanies every entry in the list below.
Give just the number in %; leave the unit off.

Example cases with answers are listed next.
COMPOUND: CCCCCCCN1C(=O)C(=O)N([C@H](CCCC)CNCc2ccccc2)C[C@@H]1Cc1ccc2ccccc2c1 [TPI 1391-21]
VALUE: 94
--
COMPOUND: CC(C)Cc1ccc(C(C)CN2C(=O)C(=O)N([C@H](CNCc3ccccc3)Cc3ccc4ccccc4c3)C[C@H]2CC(C)C)cc1 (stereo partly shown) [TPI 1391-25]
VALUE: 87
--
COMPOUND: CCCC[C@@H](CNCc1ccccc1)N1C[C@@H](CC(C)C)N(CC(C)c2ccc(CC(C)C)cc2)C(=O)C1=O (stereo partly shown) [TPI 1391-1]
VALUE: 91
--
COMPOUND: CC(C)C[C@@H]1CN([C@H](CNCc2ccccc2)Cc2ccc3ccccc3c2)C(=O)C(=O)N1CCc1cccc(C(F)(F)F)c1 [TPI 1391-28]
VALUE: 91
--
COMPOUND: CCCC[C@@H](CNCc1ccccc1)N1C[C@@H](CC(C)C)N(CC2CCC(C(C)(C)C)CC2)C(=O)C1=O (stereo partly shown) [TPI 1391-5]
VALUE: 88
--
COMPOUND: CCCC[C@H](CNCc1ccccc1)N1C[C@@H](CC(C)C)N(CC2CCC(C(C)(C)C)CC2)C(=O)C1=O (stereo partly shown) [TPI 1391-17]
VALUE: 91

--- query ---
Prompt: Reported % nonviable cells, compound CCCC[C@@H](CNCc1ccccc1)N1C[C@@H](CC(C)C)N(CCc2cccc(C(F)(F)F)c2)C(=O)C1=O [TPI 1391-4] : ____
Response: 86

* * *

# TEST_METHOD_NOTES: Jurkat leukemia cell death, Annexin V/propidium iodide flow cytometry
# Type: cell-based
# TEST_PARAMETERS: human, 100 μM, 20 hours; read-out: % nonviable cells
REPORTED_PROPERTY: cytotoxicity at 20 hours, 100 µM (%)
Give just the number in %; leave the unit off.

Prompt: Reported cytotoxicity at 20 hours, 100 µM, substance H-AVPIAQK-NH2 [SMAC, H-Ala-Val-Pro-Ile-Ala-Gln-Lys-NH2, reference compound] : ____
Response: 15

* * *

Measured % nonviable cells accompanies every entry in the list below.
# System: Jurkat leukemia cells
# TEST_METHOD_NOTES: Jurkat leukemia cell death, Annexin V/propidium iodide flow cytometry
# Format: cell-based
# TEST_PARAMETERS: 25 µM
Give just the number in %; leave the unit off.

Example cases with answers are listed next.
COMPOUND: CCCC[C@@H](CNCc1ccccc1)N1C[C@@H](CC(C)C)N(CC(C)c2ccc(CC(C)C)cc2)C(=O)C1=O (stereo partly shown)
% nonviable cells (%): 69
//
COMPOUND: CCCC[C@@H](CNCc1ccccc1)N1C[C@@H](CC(C)C)N(CC2CCC(C(C)(C)C)CC2)C(=O)C1=O (stereo partly shown)
% nonviable cells (%): 88
//
COMPOUND: CCCC[C@@H](CNCc1ccccc1)N1C[C@@H](CC(C)C)N(CCc2cccc(C(F)(F)F)c2)C(=O)C1=O
% nonviable cells (%): 90
//
COMPOUND: CC(C)C[C@@H]1CN([C@H](CNCc2ccccc2)Cc2ccc3ccccc3c2)C(=O)C(=O)N1CCc1cccc(C(F)(F)F)c1
% nonviable cells (%): 87
//
COMPOUND: CCCC[C@H](CNCc1ccccc1)N1C[C@@H](CC(C)C)N(CC2CCC(C(C)(C)C)CC2)C(=O)C1=O (stereo partly shown)
% nonviable cells (%): 88

Prompt: Request - read-out % nonviable cells | tested on Jurkat leukemia cells | compound CC(C)Cc1ccc(C(C)CN2C(=O)C(=O)N([C@H](CNCc3ccccc3)Cc3ccc4ccccc4c3)C[C@H]2CC(C)C)cc1 (stereo partly shown)
Response: 90

Prompt: Request - read-out % nonviable cells | tested on Jurkat leukemia cells | compound CCCCCCCN1C(=O)C(=O)N([C@H](CCCC)CNCc2ccccc2)C[C@@H]1Cc1ccc2ccccc2c1
Response: 91

* * *

# TEST_SYSTEM: full length XIAP (Homo sapiens, UniProt P98170)
# TEST_METHOD_NOTES: Potency of IAP antagonists in vitro (Table VIII; caspase derepression / SMAC competition with full length XIAP)
# TEST_PARAMETERS: SMAC AVPI tetrapeptide = 1.0
Where a SMILES comes first, the peptide text is derived from it. [ ]: non-standard residue; d: D form. The star is where a group is joined. Phe(4-Cl) = N[C@@H](Cc1ccc(Cl)cc1)C(=O)O; 2Nal = N[C@@H](Cc1ccc2ccccc2c1)C(=O)O; Fmoc = O=C(OCC1c2ccccc2-c2ccccc21)*; 2Thi = N[C@@H](Cc1cccs1)C(=O)O
REPORTED_PROPERTY: Relative Potency (fold versus SMAC peptide)
Please respond with just the number, no unit label.

Example cases with answers are listed next.
MOLECULE: CCCCCCCN1C(=O)C(=O)N([C@H](CCCC)CNCc2ccccc2)C[C@@H]1Cc1ccc2ccccc2c1
VALUE: 3.7
//
MOLECULE: CC(C)C[C@@H]1CN([C@H](CNCc2ccccc2)Cc2ccc3ccccc3c2)C(=O)C(=O)N1CCc1cccc(C(F)(F)F)c1
VALUE: 5
//
MOLECULE: N[C@@H](Cc1cccs1)C(=O)N[C@@H](Cc1ccc2ccccc2c1)C(=O)N[C@H](CCCCNC(=O)OCC1c2ccccc2-c2ccccc21)C(=O)N[C@@H](CCCCNC(=O)OCC1c2ccccc2-c2ccccc21)C(=O)O [TPI 792-35] (H-[2Thi][2Nal][dK](Fmoc)K(Fmoc)-OH)
VALUE: 2.5
//
MOLECULE: N[C@@H](Cc1cccs1)C(=O)N[C@@H](Cc1ccc2ccccc2c1)C(=O)N[C@@H](Cc1ccc(Cl)cc1)C(=O)N[C@@H](CCCCNC(=O)OCC1c2ccccc2-c2ccccc21)C(=O)O [TPI 792-33] (H-[2Thi][2Nal][Phe(4-Cl)]K(Fmoc)-OH)
VALUE: 5.2

--- query ---
Prompt: Request - read-out Relative Potency (fold versus SMAC peptide) | tested on full length XIAP (Homo sapiens, UniProt P98170) | molecule O=C1C(=O)N([C@H](CNCc2ccccc2)Cc2ccc3ccccc3c2)C[C@H](Cc2ccc3ccccc3c2)N1CCc1cccc(C(F)(F)F)c1
Response: 3.3
